# System: LXRb homodimer (NR concentration 270 nM)
# procedure-summary: PBM binding z-score (relative to random genomic background probes); higher = stronger binding; sequences stand for … in GC…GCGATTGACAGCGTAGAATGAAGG
Assign class by PBM binding z-score: not lower than 0.4 means Criterion met; lower than 0.4 means Criterion not met.

>>> cat("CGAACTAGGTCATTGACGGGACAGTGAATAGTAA")
"Criterion not met"
>>> cat("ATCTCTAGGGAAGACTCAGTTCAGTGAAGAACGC")
"Criterion met"
>>> cat("GCTATTAGTTGAAAGGGCAAGCGAATGATTCTCG")
"Criterion not met"
>>> cat("CAAACTAGTTCAAAGGTCAAAGTCGAGCCAACCA")
"Criterion met"
>>> cat("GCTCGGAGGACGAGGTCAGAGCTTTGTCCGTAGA")
"Criterion not met"
>>> cat("CCGACTGGGGGATAAGGTTACCATAAGCCAGCCC")
"Criterion met"
>>> cat("GCTTTTAGATCAAGGTTAAGAAAGACTAAGCTAA")
"Criterion not met"
>>> cat("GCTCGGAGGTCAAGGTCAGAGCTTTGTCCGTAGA")
"Criterion met"
>>> cat("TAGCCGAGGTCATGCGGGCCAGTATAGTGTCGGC")
"Criterion met"
>>> cat("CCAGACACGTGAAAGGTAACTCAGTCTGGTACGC")
"Criterion not met"
>>> cat("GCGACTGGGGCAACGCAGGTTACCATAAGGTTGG")
"Criterion not met"
>>> cat("TCTGCTACGTCAGTTGGTCAGCTAACGAGCTGCC")
"Criterion not met"
>>> cat("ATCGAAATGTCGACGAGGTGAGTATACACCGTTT")
"Criterion not met"
>>> cat("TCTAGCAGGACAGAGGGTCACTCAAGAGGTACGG")
"Criterion not met"
>>> cat("CCTTACGGGTCACGAGGTTATAGCCCGACGAGCG")
"Criterion not met"
>>> cat("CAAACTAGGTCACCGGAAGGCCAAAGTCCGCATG")
"Criterion not met"
>>> cat("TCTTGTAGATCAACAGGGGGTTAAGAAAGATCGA")
"Criterion met"
>>> cat("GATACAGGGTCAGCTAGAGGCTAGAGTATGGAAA")
"Criterion not met"
>>> cat("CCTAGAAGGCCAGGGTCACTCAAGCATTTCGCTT")
"Criterion not met"
>>> cat("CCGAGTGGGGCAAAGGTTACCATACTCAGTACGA")
"Criterion not met"
>>> cat("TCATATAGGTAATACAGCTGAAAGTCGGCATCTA")
"Criterion met"
>>> cat("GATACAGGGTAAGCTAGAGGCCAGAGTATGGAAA")
"Criterion not met"
>>> cat("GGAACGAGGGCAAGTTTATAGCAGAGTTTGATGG")
"Criterion not met"
>>> cat("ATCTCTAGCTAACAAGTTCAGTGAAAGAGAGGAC")
"Criterion met"
>>> cat("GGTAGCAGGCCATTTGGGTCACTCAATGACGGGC")
"Criterion not met"
>>> cat("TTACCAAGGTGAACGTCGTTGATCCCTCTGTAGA")
"Criterion not met"

###

# Test system: PPARg:RXRa DBDmut IVT, anti-RXR (DBD mutation: RXRa K156A/R161A, NR concentration 270 nM, RXRa partner concentration 90 nM)
# procedure-summary: PBM binding z-score (relative to random genomic background probes); higher = stronger binding; sequences stand for … in GC…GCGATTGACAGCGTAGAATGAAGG
Lab note: compare PBM binding z-score against 0.7. Equal or greater, write 1. Smaller, write -1.

>>> cat("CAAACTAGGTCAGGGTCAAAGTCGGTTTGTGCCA")
1
>>> cat("ATATGGAGGTTATCGGGTCATTCAGTTTGCGCAT")
1
>>> cat("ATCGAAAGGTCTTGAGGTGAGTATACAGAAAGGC")
-1
>>> cat("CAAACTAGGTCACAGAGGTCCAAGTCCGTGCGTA")
1
>>> cat("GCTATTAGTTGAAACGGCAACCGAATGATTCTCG")
-1
>>> cat("ATCGAAAGGTTGACGAGGTGAGTATACACCGTTT")
-1
>>> cat("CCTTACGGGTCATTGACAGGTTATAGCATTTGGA")
1
>>> cat("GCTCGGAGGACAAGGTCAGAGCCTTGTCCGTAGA")
-1
>>> cat("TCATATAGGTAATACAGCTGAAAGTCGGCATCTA")
1
>>> cat("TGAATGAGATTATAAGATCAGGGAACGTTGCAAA")
-1
>>> cat("ATATTTAGGTTAGCTGGGGTCATTCAGACTAGGC")
1
>>> cat("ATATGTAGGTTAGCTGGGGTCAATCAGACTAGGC")
1
>>> cat("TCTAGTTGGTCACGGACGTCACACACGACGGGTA")
1
>>> cat("GCTATTACTTGAAAGGGCAACCGAATGATTCTCG")
-1
>>> cat("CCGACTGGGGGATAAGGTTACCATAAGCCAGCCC")
-1
>>> cat("CGTCCAAGGTCAGCAAGTCAGTGAAAGCGACGTG")
1
>>> cat("TCGAGTAGGTTAGGGGCGTTCAGAATGGCGTCGA")
1
>>> cat("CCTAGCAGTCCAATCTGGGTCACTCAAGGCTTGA")
1
>>> cat("ACTATTAGTTGAGACGGGGGCAACCGATAGGTTG")
1
>>> cat("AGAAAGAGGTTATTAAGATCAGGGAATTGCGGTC")
1
>>> cat("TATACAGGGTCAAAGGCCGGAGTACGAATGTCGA")
1
>>> cat("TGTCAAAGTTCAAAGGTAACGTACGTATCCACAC")
-1
>>> cat("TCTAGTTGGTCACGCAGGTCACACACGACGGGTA")
1
>>> cat("CGAACGAGGCCATGAGTTGATAGCAAATGCCGAT")
1
>>> cat("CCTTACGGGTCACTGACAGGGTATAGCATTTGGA")
1
>>> cat("TCTAGTAGGTTACCAATGGGGCATTCAGCTTTCT")
1
